- assayName: Example 9: absorption and clearance of orally administered melatonin, plasma radioimmunoassay
- Type: in vivo, human
- setupConditions: human, plasma, po, 5 mg, Subject A, 5 mg oral in gelatin capsule; read-out: time after ingestion to peak plasma concentration (converted)
measuredParameter: Tmax (h)
Give bare numbers, in h.

# Tmax of `COc1ccc2[nH]cc(CCNC(C)=O)c2c1` = 1.1
